# study.target: OTUB1 (UniProt Q96FW1)
# Sequence (Q96FW1 whole entry, the tested form may be a part): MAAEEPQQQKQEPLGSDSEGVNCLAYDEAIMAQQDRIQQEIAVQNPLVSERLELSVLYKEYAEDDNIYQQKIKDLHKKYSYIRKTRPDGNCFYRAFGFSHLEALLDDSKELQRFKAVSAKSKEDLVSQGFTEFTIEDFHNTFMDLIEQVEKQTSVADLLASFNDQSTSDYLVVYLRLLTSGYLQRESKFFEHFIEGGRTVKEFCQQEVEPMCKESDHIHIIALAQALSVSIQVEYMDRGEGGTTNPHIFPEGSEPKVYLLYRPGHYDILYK
# measurement.notes: log2 ratio of Biotin-Ahx-Ub-VS probe labelling (fragment/DMSO); higher = less target engagement (more negative = stronger competition), active = hit call of the paper (q ≤ 0.05, log2 ratio ≤ -1)
# test.parameters: compound concentration: 200 uM; treatment time: 3 h
Category scheme (log2 ratio of Biotin-Ahx-Ub-VS probe labelling): 0: < -0.2; 1: ≥ -0.2 and < 0.02; 2: ≥ 0.02

>>> class_assignment("NC(=O)C1CCCN(C(=O)CCl)C1 (centres undefined)")
0
>>> class_assignment("CC(C)n1nccc1NC(=O)CCl")
0
>>> class_assignment("Cc1cc(C(=O)NC2CCN(C(=O)CCl)CC2)no1")
1
>>> class_assignment("COc1ccccc1C(C)NC(=O)CCl (centres undefined)")
0
>>> class_assignment("Cl.O=C(CCl)NCCN1CCc2ccccc21")
2
>>> class_assignment("Cc1ccc(CN(CCO)C(=O)CCl)cc1")
1
>>> class_assignment("Cc1ccccc1CN(C)C(=O)CCl")
0
>>> class_assignment("Cc1n[nH]c2c1CN(C(=O)CCl)CC2")
1
>>> class_assignment("Cn1cc(CN(Cc2ccc(Cl)cc2)C(=O)CCl)cn1")
1
>>> class_assignment("Cc1ccc(CNC(=O)CCl)nc1C.Cl")
1
>>> class_assignment("O=C(CCl)NCc1ccc2c(c1)OCO2")
0
>>> class_assignment("Cc1cccc(N(CCC#N)C(=O)CCl)c1C")
1
>>> class_assignment("Cc1ccc(N2CCC(NC(=O)CCl)C2=O)cc1 (centres undefined)")
2
>>> class_assignment("O=C(CCl)Nc1ccc(N2CCCC2=O)cc1")
0
>>> class_assignment("Cc1cccc(NC(=O)CCl)c1C")
1
>>> class_assignment("COc1ccc(C2CCCN2C(=O)CCl)c(OC)c1 (centres undefined)")
2
>>> class_assignment("O=C(CCl)N[C@H]1CCS(=O)(=O)c2ccccc21")
2
>>> class_assignment("CN1C(=O)c2ccc(NC(=O)CCl)cc2C1=O")
2
>>> class_assignment("O=C(CCl)N1CCC(OCc2ccccc2F)CC1")
1
>>> class_assignment("Cc1cc(NC(=O)CCl)n(-c2ccccc2)n1")
0
>>> class_assignment("Cc1cc(Cl)ccc1NC(=O)CCl")
1
>>> class_assignment("C#Cc1cccc(NC(=O)CCl)c1")
1
>>> class_assignment("O=C(CCl)N1CCCN(C(=O)c2ccc(Cl)cc2)CC1")
0
>>> class_assignment("CCN(C(=O)CCl)C1CCCCC1")
2
>>> class_assignment("Cc1cnc2[nH]cc(CCNC(=O)CCl)c2c1")
2
>>> class_assignment("Cc1ncc2c(n1)CCN(C(=O)CCl)C2")
0
>>> class_assignment("NC(=O)C(Cc1ccccc1)NC(=O)CCl (centres undefined)")
2
>>> class_assignment("O=C(CCl)N1CCCC2CCCCC21 (centres undefined)")
2

###

# study.target: USP14 (UniProt P54578)
# Sequence (P54578 whole entry, the tested form may be a part): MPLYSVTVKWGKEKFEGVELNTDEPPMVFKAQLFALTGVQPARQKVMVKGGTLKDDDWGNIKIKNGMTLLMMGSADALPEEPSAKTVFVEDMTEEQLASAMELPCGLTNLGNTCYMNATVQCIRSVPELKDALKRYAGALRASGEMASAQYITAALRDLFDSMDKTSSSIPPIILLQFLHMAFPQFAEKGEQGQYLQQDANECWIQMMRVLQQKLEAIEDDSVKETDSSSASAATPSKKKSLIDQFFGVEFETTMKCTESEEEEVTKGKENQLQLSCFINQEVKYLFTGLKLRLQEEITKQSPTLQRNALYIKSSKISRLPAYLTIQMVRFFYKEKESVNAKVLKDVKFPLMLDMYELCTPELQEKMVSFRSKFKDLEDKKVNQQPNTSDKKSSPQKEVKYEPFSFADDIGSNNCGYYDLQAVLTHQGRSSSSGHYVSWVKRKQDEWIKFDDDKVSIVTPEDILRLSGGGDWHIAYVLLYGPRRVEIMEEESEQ
# measurement.notes: log2 ratio of Biotin-Ahx-Ub-VS probe labelling (fragment/DMSO); higher = less target engagement (more negative = stronger competition), active = hit call of the paper (q ≤ 0.05, log2 ratio ≤ -1)
# test.parameters: compound concentration: 200 uM; treatment time: 3 h
Category scheme (log2 ratio of Biotin-Ahx-Ub-VS probe labelling): Low: < -0.2; Mid: ≥ -0.2 and < -0.01; High: ≥ -0.01

>>> class_assignment("O=C(CCl)NCC(=O)N1CCCC1")
"Mid"
>>> class_assignment("CN(CCC(O)c1ccc(Br)cc1)C(=O)CCl (centres undefined)")
"Low"
>>> class_assignment("C[C@@H](NC(=O)CCl)c1cccc(C#N)c1")
"Low"
>>> class_assignment("O=C(CCl)N1CCCC2CCCCC21 (centres undefined)")
"Low"
>>> class_assignment("CC(NC(=O)CCl)c1ccc2[nH]ncc2c1 (centres undefined)")
"Low"
>>> class_assignment("O=C(CCl)N1CCc2sccc2C1")
"Low"
>>> class_assignment("O=C(CCl)NC1CCCCNC1=O (centres undefined)")
"Low"
>>> class_assignment("CN(C)C(=O)c1ccc(NC(=O)CCl)cc1")
"Mid"
>>> class_assignment("CN(Cc1nc2ccccc2[nH]1)C(=O)CCl.Cl")
"High"
>>> class_assignment("Cl.Cn1nc2c(c1CNC(=O)CCl)CCCC2")
"High"
>>> class_assignment("Cc1cc(CC(C)NC(=O)CCl)n[nH]1 (centres undefined)")
"High"
>>> class_assignment("Cl.O=C(CCl)NCc1cc2c(nc1O)CCCC2")
"Mid"
>>> class_assignment("O=C(CCl)N1CCC(S(=O)(=O)c2ccc(F)cc2)CC1")
"Mid"
>>> class_assignment("Cc1ncsc1CCNC(=O)CCl")
"High"
